Reference for the values: the supplement of paper PMC10065799

I'd be grateful if you could share measured phosphorylation enrichment for these entries.
# test_system: Jak2 (UniProt O60674)
# Sequence (O60674 whole entry, looked up): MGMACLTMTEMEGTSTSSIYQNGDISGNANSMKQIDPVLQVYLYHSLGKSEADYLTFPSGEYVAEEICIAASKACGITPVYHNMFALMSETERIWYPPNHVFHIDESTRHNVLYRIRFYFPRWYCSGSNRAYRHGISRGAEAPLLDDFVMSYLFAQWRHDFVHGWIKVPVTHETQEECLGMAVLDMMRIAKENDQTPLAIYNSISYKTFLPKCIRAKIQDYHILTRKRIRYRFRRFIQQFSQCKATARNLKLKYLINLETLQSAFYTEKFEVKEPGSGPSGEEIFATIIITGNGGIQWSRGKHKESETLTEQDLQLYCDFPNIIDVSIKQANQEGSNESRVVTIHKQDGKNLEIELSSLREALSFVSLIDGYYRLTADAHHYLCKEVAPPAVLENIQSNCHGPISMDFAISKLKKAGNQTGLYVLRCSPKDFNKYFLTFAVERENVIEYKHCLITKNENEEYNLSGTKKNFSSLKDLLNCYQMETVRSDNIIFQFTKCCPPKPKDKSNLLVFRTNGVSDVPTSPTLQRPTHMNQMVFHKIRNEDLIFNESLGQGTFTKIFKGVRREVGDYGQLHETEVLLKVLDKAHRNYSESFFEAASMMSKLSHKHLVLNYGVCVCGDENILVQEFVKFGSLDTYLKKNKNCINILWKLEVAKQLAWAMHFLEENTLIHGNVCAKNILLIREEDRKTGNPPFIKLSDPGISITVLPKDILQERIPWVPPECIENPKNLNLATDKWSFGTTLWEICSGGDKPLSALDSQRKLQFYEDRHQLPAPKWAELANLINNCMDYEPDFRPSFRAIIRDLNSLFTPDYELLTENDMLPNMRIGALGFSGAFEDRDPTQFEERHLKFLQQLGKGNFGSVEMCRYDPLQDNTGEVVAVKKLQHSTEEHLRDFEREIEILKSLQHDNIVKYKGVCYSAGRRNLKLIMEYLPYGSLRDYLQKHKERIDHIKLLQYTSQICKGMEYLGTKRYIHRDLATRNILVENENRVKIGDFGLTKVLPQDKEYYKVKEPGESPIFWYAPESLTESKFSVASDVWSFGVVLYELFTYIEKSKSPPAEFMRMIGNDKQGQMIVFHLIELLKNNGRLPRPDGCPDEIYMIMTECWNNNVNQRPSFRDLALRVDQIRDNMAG
# procedure_details: phosphorylation enrichment, bacterial display (enrichment ratio); higher = better substrate or ligand; peptides without Tyr show the background;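 also: 11-residue human phosphosite peptides and single-mutation variants displayed on the E. coli surface, counted by deep sequencing, each peptide's frequency after selection divided by its frequency in the unselected input library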;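 also: frequency after pTyr selection over input frequency; kinase dosed for 20-30% of maximal phosphorylation in three min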
Please reply with the value in numeric form only.

Task item: Find the recorded phosphorylation enrichment belonging to CSRRFYQLTKL [AR_Y858] and report it.
Reply: 0.698

Task item: Now this one: NRLTDYFEPLL [BBS10_Y536_YF]
Reply: 0.959

Task item: Now this one: PLDEEYFTLQI [TP53_Y327_G325E]
Reply: 2.57

Task item: Now this one: YQLENYCNGGG [INS_Y108]
Reply: 0.461

Task item: Now this one: PLFKIYVAELI [MRPL28_Y230]
Reply: 1.71

Task item: Now this one: RLASVYTKRCS [CPT2_Y508_P504L]
Reply: 0.739

Task item: Now this one: PRPACYPSTVS [CACNA1C_Y1832_G1831C]
Reply: 0.721

Task item: Now this one: VLTSKYHGGGG [HBA1_Y141_R142H]
Reply: 0.509

Task item: Now this one: LERYIYNPEEF [HLA-DPB1_Y59_R61P]
Reply: 2.66

Task item: Now this one: VGTKRYMAPEV [ACVRL1_Y375]
Reply: 0.637

Task item: Now this one: EGWQVYRLGAR [MISP_Y95]
Reply: 0.697

Task item: Now this one: RVILRYVNPGN [LAMA3_Y791_T796N]
Reply: 1.79

Task item: Now this one: AFLLLYFNDTH [BMP15_Y235]
Reply: 1.26

Task item: Now this one: KKFPDYIQIAR [SGMS2_Y59_M64R_YF]
Reply: 1.15

Task item: Now this one: VKKNRYKDILP [PTPN12_Y64]
Reply: 0.839

Task item: Now this one: DMQTLYVNTAA [SMCHD1_Y403]
Reply: 0.518

Task item: Now this one: TIQMMYGCDVG [HLA-A_Y123_I121M]
Reply: 1.31

Task item: Now this one: RSRSPYSSRHS [CDK13_Y415]
Reply: 0.472

Task item: Now this one: GSERDYTYDEL [EIF2S2_Y174_E177D]
Reply: 0.999

Task item: Now this one: LFSINYLHFGE [KDM4C_Y201_YF]
Reply: 1.29

Task item: Now this one: VNFDDYTVNLG [GFPT1_Y367]
Reply: 1.39

Task item: Now this one: ADKAAYLQSMN [MYH2_Y389_L393M]
Reply: 0.609

Task item: Now this one: SYDLDYDSVQP [MYC_Y16_N11S]
Reply: 1.04

Task item: Now this one: KGFCGYSFDDI [TMEM230_Y110_R108C_YF]
Reply: 1.28
